Molecular target: Ecm22 (UniProt Q05958)
Sequence: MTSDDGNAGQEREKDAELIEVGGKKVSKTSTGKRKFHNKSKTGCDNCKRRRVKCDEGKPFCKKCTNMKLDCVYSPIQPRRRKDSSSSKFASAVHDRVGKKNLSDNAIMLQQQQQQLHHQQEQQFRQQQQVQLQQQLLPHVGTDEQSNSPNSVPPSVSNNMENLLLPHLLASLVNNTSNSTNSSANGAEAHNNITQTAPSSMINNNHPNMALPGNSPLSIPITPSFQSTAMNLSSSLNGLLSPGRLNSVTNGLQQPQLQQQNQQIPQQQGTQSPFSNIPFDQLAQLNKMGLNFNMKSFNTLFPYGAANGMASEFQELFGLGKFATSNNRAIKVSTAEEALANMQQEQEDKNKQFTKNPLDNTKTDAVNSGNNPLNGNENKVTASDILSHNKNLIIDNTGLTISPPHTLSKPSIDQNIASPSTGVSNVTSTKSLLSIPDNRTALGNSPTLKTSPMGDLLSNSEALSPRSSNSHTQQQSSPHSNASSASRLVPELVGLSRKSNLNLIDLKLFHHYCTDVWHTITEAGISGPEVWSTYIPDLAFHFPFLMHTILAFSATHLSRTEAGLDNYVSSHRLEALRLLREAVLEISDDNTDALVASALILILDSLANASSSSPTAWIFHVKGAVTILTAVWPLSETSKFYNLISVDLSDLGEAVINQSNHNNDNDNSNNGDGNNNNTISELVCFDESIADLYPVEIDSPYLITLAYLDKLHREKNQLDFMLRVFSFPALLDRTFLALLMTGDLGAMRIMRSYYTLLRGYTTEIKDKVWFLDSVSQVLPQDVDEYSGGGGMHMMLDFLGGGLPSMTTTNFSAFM
Assay: PBM E-score (8-mer binding enrichment) (E-score (-0.5 to 0.5)); higher = stronger / more preferred TF binding
Conditions: protein concentration: 200 nM; construct: GST-full length
Whole data set: some 33,000 sequences, median “E-score (-0.5 to 0.5)” near -0.041, cut for the highest 2% near 0.37. For the sample, the highest values were picked, then their nearest neighbours and some sequences at random.
# label = Satisfied if PBM E-score >= 0.1 else Not satisfied

Use the examples below as a reference point.
- item sequence: "CATTACCG"
  label class: "Not satisfied"
- item sequence: "CCTAGAAG"
  label class: "Not satisfied"
- item sequence: "CAAAAGGG"
  label class: "Not satisfied"
- item sequence: "CTCGCATA"
  label class: "Satisfied"
- item sequence: "CAAGCGGG"
  label class: "Not satisfied"

INPUT: Please tell me: is the sequence "CGTTGTGC" at or over 0.1 in terms of PBM E-score?
OUTPUT: Satisfied

INPUT: Please tell me: is the sequence "AAACTCCG" at or over 0.1 in terms of PBM E-score?
OUTPUT: Not satisfied

INPUT: Please tell me: is the sequence "CCAACGAG" at or over 0.1 in terms of PBM E-score?
OUTPUT: Not satisfied

INPUT: Please tell me: is the sequence "AAAGTGTT" at or over 0.1 in terms of PBM E-score?
OUTPUT: Not satisfied

* * *

Target: Ecm22 (UniProt Q05958)
Sequence: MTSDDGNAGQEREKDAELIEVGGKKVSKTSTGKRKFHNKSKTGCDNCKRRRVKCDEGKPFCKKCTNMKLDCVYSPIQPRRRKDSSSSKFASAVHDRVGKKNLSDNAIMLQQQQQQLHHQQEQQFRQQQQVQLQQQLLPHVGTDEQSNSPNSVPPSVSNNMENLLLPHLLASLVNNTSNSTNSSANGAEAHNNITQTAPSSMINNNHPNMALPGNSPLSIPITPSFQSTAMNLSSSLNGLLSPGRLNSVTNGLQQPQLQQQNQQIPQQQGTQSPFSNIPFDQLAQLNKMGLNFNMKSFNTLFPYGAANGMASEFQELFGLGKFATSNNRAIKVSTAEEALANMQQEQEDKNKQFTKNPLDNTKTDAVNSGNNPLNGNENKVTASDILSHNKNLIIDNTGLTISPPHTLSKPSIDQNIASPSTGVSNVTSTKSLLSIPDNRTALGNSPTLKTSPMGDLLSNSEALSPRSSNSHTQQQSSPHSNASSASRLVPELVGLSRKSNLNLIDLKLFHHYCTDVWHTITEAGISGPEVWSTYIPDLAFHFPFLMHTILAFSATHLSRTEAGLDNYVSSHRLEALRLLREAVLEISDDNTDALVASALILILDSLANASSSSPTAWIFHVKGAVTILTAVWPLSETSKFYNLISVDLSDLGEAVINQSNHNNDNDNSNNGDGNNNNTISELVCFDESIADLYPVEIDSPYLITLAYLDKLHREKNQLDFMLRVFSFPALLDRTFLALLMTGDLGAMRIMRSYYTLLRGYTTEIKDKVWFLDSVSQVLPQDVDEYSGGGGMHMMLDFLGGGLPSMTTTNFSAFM
Experiment: PBM E-score (8-mer binding enrichment) (E-score (-0.5 to 0.5)); higher = stronger / more preferred TF binding
Conditions: protein concentration: 200 nM; construct: GST-full length
The full ranking holds about 33,000 sequences; the median of “E-score (-0.5 to 0.5)” is about -0.041, and the highest 2% start at about 0.37. The list comes from a sample in which the highest values are over-represented; it also holds close analogues and randomly drawn sequences.
# binning rule on PBM E-score: bin 1: < 0.02; bin 2: ≥ 0.02 and < 0.09; bin 3: ≥ 0.09

Use the examples below as a reference point.
- item sequence: "AACGATCT"
  label class: "bin 3"
- item sequence: "AAGGAACC"
  label class: "bin 2"
- item sequence: "ACATCGTC"
  label class: "bin 1"

INPUT: The entry to classify is "ATGGAACG" ; which class holds it?
OUTPUT: bin 3

INPUT: The entry to classify is "AATCGAGG" ; which class holds it?
OUTPUT: bin 2

INPUT: The entry to classify is "ATGGGCCC" ; which class holds it?
OUTPUT: bin 1

INPUT: The entry to classify is "ATGTCGTG" ; which class holds it?
OUTPUT: bin 2

INPUT: The entry to classify is "CTCTCTAA" ; which class holds it?
OUTPUT: bin 1

* * *

Target: Ecm22 (UniProt Q05958)
Sequence: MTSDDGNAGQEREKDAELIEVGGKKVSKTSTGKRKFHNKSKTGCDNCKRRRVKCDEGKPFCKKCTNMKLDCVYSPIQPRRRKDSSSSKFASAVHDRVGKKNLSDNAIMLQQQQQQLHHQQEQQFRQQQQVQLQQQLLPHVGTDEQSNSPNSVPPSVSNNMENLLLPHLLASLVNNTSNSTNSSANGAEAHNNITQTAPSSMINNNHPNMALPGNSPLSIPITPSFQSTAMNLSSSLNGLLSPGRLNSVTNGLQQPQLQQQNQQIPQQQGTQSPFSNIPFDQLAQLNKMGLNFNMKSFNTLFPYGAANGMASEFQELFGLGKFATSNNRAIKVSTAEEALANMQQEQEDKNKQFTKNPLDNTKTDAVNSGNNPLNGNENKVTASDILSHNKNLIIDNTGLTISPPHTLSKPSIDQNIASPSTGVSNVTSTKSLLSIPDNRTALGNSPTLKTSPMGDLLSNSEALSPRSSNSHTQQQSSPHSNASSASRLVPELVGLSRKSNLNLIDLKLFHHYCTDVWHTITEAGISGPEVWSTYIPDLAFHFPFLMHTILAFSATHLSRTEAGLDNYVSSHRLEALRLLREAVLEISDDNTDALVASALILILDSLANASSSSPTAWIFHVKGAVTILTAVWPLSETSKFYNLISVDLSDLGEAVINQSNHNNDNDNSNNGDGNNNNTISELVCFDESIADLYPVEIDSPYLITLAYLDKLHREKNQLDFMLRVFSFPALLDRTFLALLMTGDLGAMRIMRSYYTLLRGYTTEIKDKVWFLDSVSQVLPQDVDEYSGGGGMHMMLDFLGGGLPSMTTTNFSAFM
Test: PBM E-score (8-mer binding enrichment) (E-score (-0.5 to 0.5)); higher = stronger / more preferred TF binding
Conditions: protein concentration: 200 nM; construct: GST-full length
In all, about 33,000 sequences were measured (“E-score (-0.5 to 0.5)”: median about -0.041, highest 2% from about 0.37 on). The list comes from a sample in which the highest values are over-represented; it also holds close analogues and randomly drawn sequences.
# label = MET if PBM E-score >= 0.03 else NOT MET

- item sequence: "CTGCACAA"
  label class: "NOT MET"

INPUT: Please tell me: is the sequence "CCCAACCA" at or over 0.03 in terms of PBM E-score?
OUTPUT: MET

INPUT: Please tell me: is the sequence "CGGTACCG" at or over 0.03 in terms of PBM E-score?
OUTPUT: MET

INPUT: Please tell me: is the sequence "GTACGCGA" at or over 0.03 in terms of PBM E-score?
OUTPUT: MET

INPUT: Please tell me: is the sequence "ATGGACTG" at or over 0.03 in terms of PBM E-score?
OUTPUT: NOT MET

INPUT: Please tell me: is the sequence "CTATCGTA" at or over 0.03 in terms of PBM E-score?
OUTPUT: MET

INPUT: Please tell me: is the sequence "AATACGGG" at or over 0.03 in terms of PBM E-score?
OUTPUT: MET

INPUT: Please tell me: is the sequence "ATACAGAG" at or over 0.03 in terms of PBM E-score?
OUTPUT: NOT MET

INPUT: Please tell me: is the sequence "GTACGAGA" at or over 0.03 in terms of PBM E-score?
OUTPUT: MET

INPUT: Please tell me: is the sequence "CATACGTC" at or over 0.03 in terms of PBM E-score?
OUTPUT: MET

INPUT: Please tell me: is the sequence "CGGCCTCC" at or over 0.03 in terms of PBM E-score?
OUTPUT: NOT MET
